The values you see were collected from PubChem BioAssay (NCI).

Test system: SN12C renal
Experimental Protocol: NCI tumour cell line growth inhibition, 48 h; in the data active means GI50 below about 0.43 µM; inactive means the rest
Classes used: true = active, false = inactive

COc1ccc(-c2ccc(/C=N/n3c(COc4ccccc4Cl)nn(CN4CCN(C)CC4)c3=S)o2)c([N+](=O)[O-])c1
false
O=[N+]([O-])c1ccc(-c2nc(-c3ccccc3)c(-c3ccccc3)n2-c2ccccc2)cc1
false
C=C1C[C@](OC)([C@H](O)C(=O)N[C@@H](OC)[C@@H]2C[C@@H](O)C(C)(C)[C@@H](C[C@@H](COC)OC)O2)O[C@H](C)[C@@H]1C
true
O=C(OCc1ccccc1)N1CCN(/[N+]([O-])=N/Oc2ccc([N+](=O)[O-])cc2[N+](=O)[O-])CC1
false
CCC[CH2][Sn]([CH2]CCC)([O]C(=O)c1cc(F)cc(F)c1)[O]C(=O)c1cc(F)cc(F)c1
false
Cc1cccc(Oc2nccc(-c3c(-c4ccc(F)cc4)ncn3C3CCNCC3)n2)c1C
false
Cc1cc2cc3cc(C)c(N(C)C)cc3nc2cc1N(C)C
false
Cc1nc2sccn2c(=O)c1CCN1CCC(=C(c2ccc(F)cc2)c2ccc(F)cc2)CC1
false
CCC(C)n1cc(C)c2c(C(=O)NCc3c(C)cc(C)[nH]c3=O)cc(Br)cc21 (stereo not drawn)
false
COCC1CCCN1c1ccc(/C=C(/C#N)C(N)=S)cc1 (stereo not drawn)
false
COc1ccc(NC(=O)n2nc(N)c3ccccc32)cc1OC
false
COc1cc(C(=O)/C=C/c2cc(C(=O)c3cc(OC)c(OC)c(OC)c3)ccc2OC)ccc1N
false
CN1CCCNc2c(c(=O)c2=O)NCCCN(C)CCCNc2c(c(=O)c2=O)NCCCN(C)CCCNc2c(c(=O)c2=O)NCCCN(C)CCCNc2c(c(=O)c2=O)NCCCN(C)CCCNc2c(c(=O)c2=O)NCCCN(C)CCCNc2c(c(=O)c2=O)NCCCN(C)CCCNc2c(c(=O)c2=O)NCCC1
false

====

Listed molecules paired with reported GI50
Test system: SNB-19 CNS
Experimental Protocol: NCI tumour cell line growth inhibition, 48 h
Assay Endpoint: GI50

CCOC(=O)c1sc2nc3sc(N=Nc4ccc(Cl)cc4)c(O)n3c(=S)c2c1C
27.4 µM
COc1ccc(-c2ccc(/C=N/n3c(COc4ccccc4Cl)nn(CN4CCN(C)CC4)c3=S)o2)c([N+](=O)[O-])c1
27.1 µM
CC(=O)c1ccc(NC(=O)CSc2nnc(-c3cc(-c4ccc(C)cc4)nc4ccccc34)o2)cc1
3.87 µM
CC(=O)N1CC(Nc2ccc(OC(F)(F)F)cc2)=CC1=O
3.22 µM
COc1cc(/C=C/c2cc(/C=C/c3ccc(O)c(OC)c3)n(-c3c(C)cccc3C)c(=O)n2)ccc1O
2.38 µM
CCC[CH2][Sn]([CH2]CCC)([O]C(=O)c1cc(F)cc(F)c1)[O]C(=O)c1cc(F)cc(F)c1
1.5 µM
O=C1OCC(c2cccs2)=C1Cl
> 100 µM
CCN(CC)CCCNc1cccc2c(SCc3ccccc3)ccnc12
1.83 µM
OCCCN=NNc1ccc(-c2nc3ccccc3[nH]2)cc1
22.9 µM
CN1CCCNc2c(c(=O)c2=O)NCCCN(C)CCCNc2c(c(=O)c2=O)NCCCN(C)CCCNc2c(c(=O)c2=O)NCCCN(C)CCCNc2c(c(=O)c2=O)NCCCN(C)CCCNc2c(c(=O)c2=O)NCCCN(C)CCCNc2c(c(=O)c2=O)NCCCN(C)CCCNc2c(c(=O)c2=O)NCCC1
2.59 µM
COc1ccc(NC(=O)n2nc(N)c3ccccc32)cc1OC
> 100 µM
Cc1nc2sccn2c(=O)c1CCN1CCC(=C(c2ccc(F)cc2)c2ccc(F)cc2)CC1
16 µM
Cc1ccc(C2NC(=S)NC3=C2CCOc2c3ccc3ccccc23)cc1 (stereo not given)
> 100 µM
C=C(C)[C@@H]1CC[C@]2(C)[C@H](C(=O)C=C3[C@@H]4C[C@](C)(C(=O)N5CCN(C)CC5)CC[C@]4(C)CC[C@]32C)[C@@]1(C)CCC#N
7.87 µM
ClC1=C(Cl)C(Cl)=C(Cl)C1=C/C=C/c1ccccc1
0.59 µM
